biological target: cyclooxygenase (Homo sapiens, UniProt P23219); construct: Cyclooxygenase Assay with Human Platelets; endogenous in cells; host or cells: human blood platelets from healthy volunteers; experiment: Cyclooxygenase Assay with Human Platelets, HHT production; type: cell-based; settings: 15 μM; read-out: PMN Assay % Inhibition HHT
Sequence (P23219 24-599): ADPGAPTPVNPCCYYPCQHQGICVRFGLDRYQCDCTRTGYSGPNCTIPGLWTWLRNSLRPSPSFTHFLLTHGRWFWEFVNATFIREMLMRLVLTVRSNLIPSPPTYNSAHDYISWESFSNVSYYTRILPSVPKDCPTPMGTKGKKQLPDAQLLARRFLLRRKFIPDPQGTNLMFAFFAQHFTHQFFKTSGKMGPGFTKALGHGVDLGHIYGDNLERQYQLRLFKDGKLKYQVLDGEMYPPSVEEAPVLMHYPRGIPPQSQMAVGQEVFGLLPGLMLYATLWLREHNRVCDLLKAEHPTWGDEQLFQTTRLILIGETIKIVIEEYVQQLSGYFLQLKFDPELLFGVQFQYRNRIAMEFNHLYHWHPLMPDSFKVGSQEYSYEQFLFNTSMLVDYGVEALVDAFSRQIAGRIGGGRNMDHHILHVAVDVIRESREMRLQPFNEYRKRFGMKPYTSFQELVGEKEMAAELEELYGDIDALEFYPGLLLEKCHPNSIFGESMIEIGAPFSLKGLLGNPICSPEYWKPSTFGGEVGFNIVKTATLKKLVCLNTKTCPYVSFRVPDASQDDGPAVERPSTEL
quantity-name: % inhibition of HHT production in human platelets at 15 µM (%)

O=C1C(Sc2ccccc2)c2cccnc2N1c1ccc(Cl)c(Cl)c1 (centres unmarked) [Compound 34] :: 54
O=C1C(Sc2ccccc2)c2cccnc2N1c1ccccc1 (centres unmarked) [Compound 11] :: 23
O=C1N(Cc2ccccc2)c2ncccc2C1(Sc1ccccc1)Sc1ccccc1 [Compound 26] :: 11

A: O=C1C(Sc2ccccc2)c2cccnc2N1c1cccc(Cl)c1 (centres unmarked) [Compound 33]
B: CC(=O)OCCSC1(C(C)=O)C(=O)N(c2ccccc2)c2ncccc21 (centres unmarked) [Compound 28]
// query # return whichever of A and B has the smaller % inhibition of HHT production in human platelets at 15 µM Pick one; state its label.
// result B

###

target: 5-lipoxygenase (Homo sapiens, UniProt P09917); construct: Human polymorphonuclear (PMN) leukocytes (neutrophils) are obtained from normal healthy volunteers; endogenous in cells; host or cells: human polymorphonuclear leukocytes (neutrophils) from blood of healthy volunteers; assay: 5-Lipoxygenase Assay in human polymorphonuclear (PMN) leukocytes, 5-HETE production; format: cell-based; conditions: 50 μM
Sequence (P09917 whole entry): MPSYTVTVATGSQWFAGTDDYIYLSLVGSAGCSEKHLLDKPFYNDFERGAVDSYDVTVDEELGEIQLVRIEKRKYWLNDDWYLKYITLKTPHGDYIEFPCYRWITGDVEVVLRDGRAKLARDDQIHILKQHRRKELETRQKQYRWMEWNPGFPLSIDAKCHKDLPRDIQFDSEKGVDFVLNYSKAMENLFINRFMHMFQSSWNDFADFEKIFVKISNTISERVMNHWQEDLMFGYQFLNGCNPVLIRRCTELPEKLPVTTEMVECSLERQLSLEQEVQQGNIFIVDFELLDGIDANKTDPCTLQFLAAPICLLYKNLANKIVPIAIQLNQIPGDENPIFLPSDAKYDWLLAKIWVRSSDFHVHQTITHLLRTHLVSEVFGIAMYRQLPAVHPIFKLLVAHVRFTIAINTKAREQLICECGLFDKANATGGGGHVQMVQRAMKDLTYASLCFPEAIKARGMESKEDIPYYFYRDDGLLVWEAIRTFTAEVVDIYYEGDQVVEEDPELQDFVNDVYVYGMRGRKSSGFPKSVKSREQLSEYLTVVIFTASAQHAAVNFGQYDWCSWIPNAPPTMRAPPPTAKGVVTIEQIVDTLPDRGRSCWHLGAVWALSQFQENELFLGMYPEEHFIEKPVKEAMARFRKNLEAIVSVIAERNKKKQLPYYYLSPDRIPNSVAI
quantity-name: inhibition at 50 µM (%)

Check out these entries, answers already filled in.
COc1ccccc1SC1C(=O)N(c2ccccc2)c2ncccc21 (stereo not drawn) :: 84
CC(C)c1ccc(N2C(=O)C(Sc3ccccc3)c3cccnc32)cc1 (stereo not drawn) :: 84
CC1(Sc2ccccc2)C(=O)N(c2ccccc2)c2ncccc21 (stereo not drawn) :: 68
CN1C(=O)C(Sc2ccccc2)c2cccnc21 (stereo not drawn) :: 63

a: CC(C)N1C(=O)C(Sc2ccccc2)c2cccnc21 (stereo not drawn)
b: O=C1C(Sc2ccccc2Cl)c2cccnc2N1c1ccccc1 (stereo not drawn)
// query Between a and b , which one shows the larger inhibition at 50 µM value? Pick one; state its label.
// result b
(b: 90%, a: 63%)

###

system: 5-LO; experiment: Reversed Passive Arthus Reaction (RPAR) in the pleural cavity: LTE-4 in exudate; format: in vivo, male rats; settings: dose 25 mpk
# RPAR-Pleural Cavity % Inhibition LTE-4 per entry
The reply should be a number in %, with the unit left off.

Check out these entries, answers already filled in.
CC1(C)C(=O)N(c2cccc(Cl)c2)c2ncccc21 :: 59
CC1(C)C(=O)N(c2ccc(Cl)cc2)c2ncccc21 :: 87
CC1(C)C(=O)N(c2ccc(Cl)c(Cl)c2)c2ncccc21 :: 46
COc1ccc(N2C(=O)C(C)(C)c3cccnc32)cc1 :: 0

// query Missing value: RPAR-Pleural Cavity % Inhibition LTE-4, 5-LO, entry `CN1C(=O)C(C)(C)c2cccnc21` . Fill in?
// result 62

###

# inhibition in vivo at 25 mg/kg per entry
Tested on: Reversed Passive Arthus Reaction (RPAR) in the pleural cavity
Test: Reversed Passive Arthus Reaction (RPAR) in the pleural cavity: cells and fluid
Format: in vivo, male rats
Settings: Rattus norvegicus, 4 h; dose 25 mpk; read-out: RPAR-Pleural Cavity % Inhibition cells
Procedure: Reversed Passive Arthus Reaction (RPAR) Assay Groups of 4 male rats were injected in the penile vein with antigen (1 mg BSA in 0.2 mL of saline per rat) and 0.5 hour later injected in the pleural cavity with antibody (1.0 mg antibody protein in the IgG fraction of rabbit anti-BSA in 0.2 mL). […] The volume of the exudate was measured. […] The number of cells were determined in a Colulter Counter. […]
The reply should be a number in %, with the unit left off.

CC1(C)C(=O)N(c2ccc(Cl)cc2)c2ncccc21 [Compound 2] :: 73
CSc1ccc(N2C(=O)C(C)(C)c3cccnc32)cc1 [Compound 10] :: 29

Kindly consider the entry below.
// query Name the recorded inhibition in vivo at 25 mg/kg for CC1(C)C(=S)N(c2ccccc2)c2ncccc21 [Compound 7] .
// result 35
